Each item that follows carries a reported melting point.

Example results:
compound="CCCCCCCOc1ccc(CCC(CO)(CCO)NC(=O)c2cc([N+](=O)[O-])cc([N+](=O)[O-])c2)cc1 (single isomer, unassigned; (+))" measured_parameter="melting point" observed_measurement="78 to 79 °C"
compound="CC(=O)NC1CSC(=S)N(c2cccc(F)c2)C1=O (centres undefined)" measured_parameter="melting point" observed_measurement="176 to 177 °C"

# lookup: melting point of O=C1C(c2cccc(Br)c2)n2cncc2CN1Cc1cccnc1 (centres undefined)
50 to 54 °C

Record: CN(C(=O)OC(C)(C)C)c1ccc(C#CCCCO)cc1
103 to 105 °C

Record: CCN[C@H]1CCN(c2c(-c3ccccc3)c(C)c(C#N)c3nc(C4CC4)oc23)C1
209 to 211 °C

Record: COc1ccc(-c2nc(C(=O)O)cn2-c2ccc(OC)cc2)cc1
102 to 105 °C

Record: O=C(O)CCc1cn(Cc2ccc(OCc3ccsc3)cc2)cc1-c1ccccc1
118 to 119 °C

Record: CC(C)(C)C(=O)Nc1nc(CC(=O)Nc2cccc(C(F)(F)F)c2)cs1
147 to 152 °C

Record: CC1(C)[C@@H]2CC[C@@]1(C)C[C@H]2OC(=O)C1CCC(C(=O)O[C@@H]2C[C@]3(C)CC[C@H]2C3(C)C)CC1 (some centres undefined)
77 °C

---

Each item that follows carries a reported melting point.

compound="CC1CCC(C(=O)N(C)C)=C2NC=CC(=O)N21 (stereo not given)" observed_measurement="78 °C"
compound="CCOC(=O)C1SC(c2ccc3ccccc3c2)=NN1C(=O)CCSC(C)=O (stereo not given)" observed_measurement="107 to 108 °C"
compound=COc1ccc(Cl)cc1-c1nnn(-c2ccc(Cl)cc2Cl)c1N observed_measurement="154 to 155 °C"
compound=CC(=O)N(CC(=O)O)c1ccc(C)cc1C observed_measurement="165 to 172 °C"
compound="CCOC(=O)CNC(=O)N1CS(=O)c2c1cc(C(F)(F)F)cc2[N+](=O)[O-] (stereo not given)" observed_measurement="150 °C"

# lookup: melting point of CS(=O)(=O)c1c(C(N)=NO)nn(-c2c(Cl)cc(C(F)(F)F)cc2Cl)c1N
132 to 134 °C

Record: O=C(Nc1cccnn1)N1CCN(c2cncc(-c3ccc(F)cc3F)c2)CC1
172 to 173 °C

Record: C[C@@]1(CBr)OC(=O)[C@H]2CCCN2C1=O
107 to 109 °C

Record: Cc1nc2nc(S(=O)(=O)Cl)nn2cc1Cl
99 to 101 °C

Record: CCCCc1nc(Cl)c(CC(=O)O)c(Cc2ccc(C(=O)O)cc2)n1
205 °C

---

measured-parameter: melting point (°C)

smiles_notation=Cc1nc(-c2ccc(S(C)(=O)=O)cc2)c(-c2ccc(-c3cscn3)cc2)s1 measured_parameter="melting point" units_text=°C observed_measurement=194
smiles_notation=Cc1ccc(S(=O)(=O)Oc2ccc(S(=O)(=O)c3c(C(C)C)cn4ncccc34)cc2)cc1 measured_parameter="melting point" units_text=°C observed_measurement=149

---

measured-parameter: melting point

Example results:
compound="C[Si](C)(C)C(N)Cc1ccccc1 (stereo not given)" measured_parameter="melting point" observed_measurement="67 to 68 °C"
compound=CCc1ccc(C(C)(C)C)c(O)c1C(=O)Nc1ccc(S(=O)(=O)C(F)(F)F)cc1Cl measured_parameter="melting point" observed_measurement="126 to 127 °C"
compound=CCc1c(Cl)nc(Cl)nc1N(C=O)c1cc(C)cc(C)c1 measured_parameter="melting point" observed_measurement="124 to 125 °C"
compound="O=C1OC(Cc2ccccc2)CN1Cc1ccccc1 (stereo not given)" measured_parameter="melting point" observed_measurement="81 to 82 °C"
compound=CC(C)Cn1c(=O)n(C)c(=O)c2c(SCCCC#N)n(Cc3cccc4ccccc34)cc21 measured_parameter="melting point" observed_measurement="127 to 128 °C"
compound=CCCCCCCC(N)=NO measured_parameter="melting point" observed_measurement="73 to 75 °C"

# lookup: melting point of CC1(C)CNc2nc(-c3ccncc3)c(F)c(=O)n2C1
190 to 192 °C

Record: O=C1CCCC2=C1C(c1ccc(Cl)cc1)C1=C(CCCC1)N2 (stereo not given)
253 to 254 °C

Record: Cn1cc(O)c(=O)c2ccccc21
235 to 240 °C

Record: O=C(COc1ccc(Cl)cc1Cl)OCCOC(=O)c1cc(Oc2ccc(C(F)(F)F)cc2Cl)ccc1[N+](=O)[O-]
111 to 118 °C

---

measured-parameter: melting point

Example results:
compound=Cc1ccc(-c2csc(NC(=O)Nc3nc(-c4ccc(C)cc4)cs3)n2)cc1 measured_parameter="melting point" observed_measurement="> 300 °C"
compound=OCc1c(C(F)(F)F)nn(-c2ccccc2)c1OC(F)F measured_parameter="melting point" observed_measurement="57 to 59 °C"
compound=Cn1nc(-c2c(F)cccc2Cl)nc1-c1ccc(OCc2ccc(C(F)(F)F)cc2F)c(Cl)c1 measured_parameter="melting point" observed_measurement="109 to 111 °C"
compound=Cc1[nH]c(Cl)c(C)c1-c1ccnc(Nc2ccc(F)cc2)n1 measured_parameter="melting point" observed_measurement="200 to 203 °C"
compound=O=C(/C=C/c1ccccc1)Nc1cccc(F)c1 measured_parameter="melting point" observed_measurement="110 °C"

# lookup: melting point of O=C(C=Cc1ccccc1Cl)Nc1cc(Cl)cc(Nc2noc3ccccc23)c1
133 to 135 °C

Record: O=C(O)CSC(CCc1ccccc1)c1ccc(OCc2ccc3ccccc3n2)cc1 (stereo not given)
117 to 118 °C

Record: Cc1nc(-c2ncn3c2[C@@H]2CCCN2C(=O)c2c(Cl)cccc2-3)n(C)n1
221 to 222 °C

Record: NCc1nc(-c2ncn3c2[C@@H]2CCN2C(=O)c2ccccc2-3)no1
211 to 214 °C

Record: CC(Oc1ccccc1Cl)c1nnc(C2C(O)NC(=O)N2C)s1 (stereo not given)
122 to 124 °C

---

measured-parameter: melting point

# lookup: melting point of CC(C)(C)OC(=O)N1CCC(Nc2nc3ccccc3[nH]2)CC1
249 °C

---

Each item that follows carries a reported melting point.

Example results:
compound="CC1CCC(Nc2nccc(Oc3ccc(NC(=O)c4cc(F)cc(N5CCOCC5)c4)c4ccccc34)n2)CC1 (stereo unspecified)" observed_measurement="116 to 117 °C"
compound="Cc1ccc(OC2COc3ccc(OCc4ccc5cc(F)ccc5n4)cc3C2O)cn1 (stereo unspecified)" observed_measurement="164 to 165 °C"
compound="COc1cccc(C2COc3c(C)c(C)c(NC(=O)CC(C)(C)C)c(C)c32)c1 (stereo unspecified)" observed_measurement="169 to 170 °C"
compound=c1cc2c(c(NC3=NCCO3)c1)CCCC2 observed_measurement="101 to 103 °C"
compound="CC(F)C(C)(N)C(N)=O (stereo unspecified)" observed_measurement="81 °C"

# lookup: melting point of OC[C@H]1CCc2cccc(O)c2O1
131 to 132 °C

Record: O=C1[C@H]2CCC[C@H]2N(C(=O)Cn2cnc3ccccc32)c2ccccc2N1Cc1ccccc1 (relative stereo)
188 to 189 °C

Record: Cc1c(C)c2c(c(C)c1NC(=O)CC(C)(C)C)C(N1CCCCC1)C(C)(C)O2 (stereo unspecified)
229 to 230 °C

Record: O=c1[nH]nc(-c2sc3ccccc3c2Cl)o1
218 to 220 °C

Record: CC(=O)C#CC1CCC2C3CCC4CC(O)CCC4(C)C3CCC12C (stereo unspecified)
148 to 150 °C

Record: CC(=O)OCc1nc2nccnc2c(=O)[nH]1
210 to 212 °C

Record: COc1ncccc1-c1cncc(OC2SCC(OC(C)=O)C(OC(C)=O)C2OC(C)=O)c1 (stereo unspecified)
167 °C

Record: CCOC(=O)c1sc(-c2ccc(C#N)cc2)nc1CBr
156 °C

---

Each item that follows carries a reported melting point.

# lookup: melting point of CC1CC2=CC(=O)CCC2(C)C2C(=O)CC3(C)C(=O)CCC3C12 (stereo unspecified)
235 to 237 °C

Record: NC(=O)C1CCC2(CC1)OCCO2
167 to 170 °C

Record: O=C(C=Cc1cnc2ccccc2c1)NCCCSc1ccncc1
154 to 155 °C

Record: O=[N+]([O-])c1ccc(O)cc1Br
130 to 135 °C

Record: C[C@@H](n1cnc2cc(Br)c(F)cc2c1=O)[C@](O)(Cn1cncn1)c1ccc(F)cc1F
185 to 186 °C

Record: O=c1oc(=O)n(Cc2ccc(F)cc2)c2ccccc12
142 to 145 °C

Record: c1ccc(-c2ccc(Nc3ncc(-c4ccccc4)s3)nc2)cc1
231 to 233 °C

Record: Cc1ccc(-c2coc3cc(O)c(O)cc3c2=O)cc1
280 °C

Record: CN(C)c1cccc(C(=O)COc2cccc(Cl)c2)c1
70 to 72 °C

Record: CN1C(=O)C(NC(=O)Nc2ccccc2)N(C)C1=O (stereo unspecified)
188 to 189 °C

Record: OCC1OC(c2ccc(Cl)c(Cc3cc4ccccc4s3)c2)C(O)C(O)C1O (stereo unspecified)
153 to 154 °C
